- STUDY_TARGET: Tyrosyl-tRNA synthetase, putative (Trypanosoma cruzi (strain CL Brener)) (UniProt Q4DSP6)
- Sequence (Q4DSP6 as listed by the source): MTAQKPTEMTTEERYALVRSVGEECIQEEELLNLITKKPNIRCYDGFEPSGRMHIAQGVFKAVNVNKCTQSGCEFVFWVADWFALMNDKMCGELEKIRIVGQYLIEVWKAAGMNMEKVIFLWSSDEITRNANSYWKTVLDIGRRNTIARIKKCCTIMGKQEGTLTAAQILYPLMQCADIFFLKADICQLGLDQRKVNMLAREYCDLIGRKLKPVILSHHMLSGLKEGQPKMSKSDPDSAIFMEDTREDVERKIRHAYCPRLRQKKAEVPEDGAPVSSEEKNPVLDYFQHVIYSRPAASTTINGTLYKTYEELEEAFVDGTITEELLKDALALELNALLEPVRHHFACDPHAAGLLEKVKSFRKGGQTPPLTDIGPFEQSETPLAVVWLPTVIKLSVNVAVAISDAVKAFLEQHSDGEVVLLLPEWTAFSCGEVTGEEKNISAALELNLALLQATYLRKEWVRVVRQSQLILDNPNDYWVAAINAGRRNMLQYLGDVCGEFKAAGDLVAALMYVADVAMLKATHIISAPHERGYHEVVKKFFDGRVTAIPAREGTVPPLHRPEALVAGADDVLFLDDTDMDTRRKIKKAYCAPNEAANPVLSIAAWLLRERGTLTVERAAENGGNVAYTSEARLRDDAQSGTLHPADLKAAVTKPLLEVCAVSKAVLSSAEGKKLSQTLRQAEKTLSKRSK
- PROTOCOL_TEXT: Trypanosoma cruzi tyrosyl tRNA synthetase (TcYRS) SOP
- Assay type: functional
- Set-up: scale not given: direction of the effect not stated beside the values
- CONDITION_SET: 30 µM
QUANTITY_NAME: Percent Effect (%)
The reply should be a number in %, with the unit left off.

Request body: readout Percent Effect, system Tyrosyl-tRNA synthetase, putative (Trypanosoma cruzi (strain CL Brener)) (UniProt Q4DSP6), query Cc1cnc2n(c1=O)CC(C(=O)Nc1ccccc1Cl)CS2 (centres undefined) . Return the value.
0

Request body: readout Percent Effect, system Tyrosyl-tRNA synthetase, putative (Trypanosoma cruzi (strain CL Brener)) (UniProt Q4DSP6), query NC(=O)c1ccc(NC(=O)CCN2CCCC(N3CCCC3)C2)cc1 (centres undefined) . Return the value.
15.8

Request body: readout Percent Effect, system Tyrosyl-tRNA synthetase, putative (Trypanosoma cruzi (strain CL Brener)) (UniProt Q4DSP6), query CCOC(=O)CCNC(=O)N1CCN(c2nc3ccccc3n2C)CC1 . Return the value.
16.7

Request body: readout Percent Effect, system Tyrosyl-tRNA synthetase, putative (Trypanosoma cruzi (strain CL Brener)) (UniProt Q4DSP6), query NC(=O)C1CCN(C(=O)Cn2nc(-c3ccccc3)oc2=O)C1 (centres undefined) . Return the value.
13.6

Request body: readout Percent Effect, system Tyrosyl-tRNA synthetase, putative (Trypanosoma cruzi (strain CL Brener)) (UniProt Q4DSP6), query O=C(c1cccc2[nH]ncc12)N1CCCC1c1noc(C2CC2)n1 (centres undefined) . Return the value.
11.4

Request body: readout Percent Effect, system Tyrosyl-tRNA synthetase, putative (Trypanosoma cruzi (strain CL Brener)) (UniProt Q4DSP6), query COCC(=O)N1CC[C@@H]2O[C@H](COCc3ccncc3)CC[C@@H]21 . Return the value.
17.9

Request body: readout Percent Effect, system Tyrosyl-tRNA synthetase, putative (Trypanosoma cruzi (strain CL Brener)) (UniProt Q4DSP6), query CN(C)C(=O)c1ccc(CNC(=O)NCCN(C)C2CCCC2)cc1 . Return the value.
18.5

Request body: readout Percent Effect, system Tyrosyl-tRNA synthetase, putative (Trypanosoma cruzi (strain CL Brener)) (UniProt Q4DSP6), query CCOc1cccc(C(C)NCc2ccc(OC)c(OC)c2OC)c1 (centres undefined) . Return the value.
21

Request body: readout Percent Effect, system Tyrosyl-tRNA synthetase, putative (Trypanosoma cruzi (strain CL Brener)) (UniProt Q4DSP6), query O=C([C@H]1COC[C@H]2CN(C3CCCC3)C[C@H]21)N1CCCCO1 . Return the value.
-5

Request body: readout Percent Effect, system Tyrosyl-tRNA synthetase, putative (Trypanosoma cruzi (strain CL Brener)) (UniProt Q4DSP6), query COc1cccc(CN2CCCC2c2c(C)nn(C)c2C)c1 (centres undefined) . Return the value.
-1.27

Request body: readout Percent Effect, system Tyrosyl-tRNA synthetase, putative (Trypanosoma cruzi (strain CL Brener)) (UniProt Q4DSP6), query Cc1ccc(-c2nc(CNCCn3cccn3)cs2)o1 . Return the value.
4.88

Request body: readout Percent Effect, system Tyrosyl-tRNA synthetase, putative (Trypanosoma cruzi (strain CL Brener)) (UniProt Q4DSP6), query CN(C(=O)Cc1ccc(NC(=O)NC2CCC2)cc1)c1ccccc1 . Return the value.
15.6

Request body: readout Percent Effect, system Tyrosyl-tRNA synthetase, putative (Trypanosoma cruzi (strain CL Brener)) (UniProt Q4DSP6), query CCc1ccc(NC(=O)N2C[C@H]3C[C@H](C(=O)NC)[C@@H](C2)O3)cc1 . Return the value.
6.41

Request body: readout Percent Effect, system Tyrosyl-tRNA synthetase, putative (Trypanosoma cruzi (strain CL Brener)) (UniProt Q4DSP6), query CCn1c(C(=O)N2CCN(CC(C)O)CC2)cc2ccccc21 (centres undefined) . Return the value.
21.9

Request body: readout Percent Effect, system Tyrosyl-tRNA synthetase, putative (Trypanosoma cruzi (strain CL Brener)) (UniProt Q4DSP6), query O=C(NCc1csc(Br)c1)c1ccc(=O)[nH]n1 . Return the value.
-10.1

Request body: readout Percent Effect, system Tyrosyl-tRNA synthetase, putative (Trypanosoma cruzi (strain CL Brener)) (UniProt Q4DSP6), query COC(=O)c1sccc1S(=O)(=O)NCC1(O)CCOc2ccccc21 (centres undefined) . Return the value.
7.5

Request body: readout Percent Effect, system Tyrosyl-tRNA synthetase, putative (Trypanosoma cruzi (strain CL Brener)) (UniProt Q4DSP6), query Cc1cc(S(=O)(=O)N2CCCc3cc(F)cc(F)c32)sc1C(=O)O . Return the value.
-18.5

Request body: readout Percent Effect, system Tyrosyl-tRNA synthetase, putative (Trypanosoma cruzi (strain CL Brener)) (UniProt Q4DSP6), query O=C(Cn1ccc2ccc(Br)cc21)NC[C@@H]1CCCN2CCCC[C@H]12 . Return the value.
-56.4

Request body: readout Percent Effect, system Tyrosyl-tRNA synthetase, putative (Trypanosoma cruzi (strain CL Brener)) (UniProt Q4DSP6), query COc1ccc(OC)c(NC(=O)c2nc3ccccc3n(C)c2=O)c1 . Return the value.
14.1

Request body: readout Percent Effect, system Tyrosyl-tRNA synthetase, putative (Trypanosoma cruzi (strain CL Brener)) (UniProt Q4DSP6), query Cc1ccc(OCC(=O)NCC(C)C)nc1 . Return the value.
11.1

Request body: readout Percent Effect, system Tyrosyl-tRNA synthetase, putative (Trypanosoma cruzi (strain CL Brener)) (UniProt Q4DSP6), query CC(NC(=O)NCCCn1ccnc1)c1ccc2c(c1)CCC(=O)N2 (centres undefined) . Return the value.
24.1

Request body: readout Percent Effect, system Tyrosyl-tRNA synthetase, putative (Trypanosoma cruzi (strain CL Brener)) (UniProt Q4DSP6), query O=C(NCc1cc[nH]n1)N1CCN(c2ccccc2Cl)CC1 . Return the value.
18.5

Request body: readout Percent Effect, system Tyrosyl-tRNA synthetase, putative (Trypanosoma cruzi (strain CL Brener)) (UniProt Q4DSP6), query CN1CCCN(C[C@@H]2CN(C(=O)CCC3CCCC3)C[C@@H]2CO)CC1 . Return the value.
11.1

Request body: readout Percent Effect, system Tyrosyl-tRNA synthetase, putative (Trypanosoma cruzi (strain CL Brener)) (UniProt Q4DSP6), query Cc1noc(C(C)C)c1C(=O)N1CCOCC1CC(=O)c1ccco1 (centres undefined) . Return the value.
-7.79

Request body: readout Percent Effect, system Tyrosyl-tRNA synthetase, putative (Trypanosoma cruzi (strain CL Brener)) (UniProt Q4DSP6), query CCc1c(C)nc2n(c1=O)CC(C(=O)Nc1ccccc1F)CS2 (centres undefined) . Return the value.
16.7

Request body: readout Percent Effect, system Tyrosyl-tRNA synthetase, putative (Trypanosoma cruzi (strain CL Brener)) (UniProt Q4DSP6), query CCN(CC)S(=O)(=O)N1CCCC(c2ccc(C(=O)O)cc2)C1 (centres undefined) . Return the value.
0

Request body: readout Percent Effect, system Tyrosyl-tRNA synthetase, putative (Trypanosoma cruzi (strain CL Brener)) (UniProt Q4DSP6), query COCC1CC2(CCN(C(=O)c3ccc(OC)c(Cl)c3)CC2)CO1 (centres undefined) . Return the value.
3.85

Request body: readout Percent Effect, system Tyrosyl-tRNA synthetase, putative (Trypanosoma cruzi (strain CL Brener)) (UniProt Q4DSP6), query O=C1CC2(CCN(CC3CCOC3)CC2)CN1Cc1cc(F)cc(F)c1 (centres undefined) . Return the value.
10.3

Request body: readout Percent Effect, system Tyrosyl-tRNA synthetase, putative (Trypanosoma cruzi (strain CL Brener)) (UniProt Q4DSP6), query Cc1nc(CN2CCn3cc(CNC(=O)C4CCC4)nc3C2)cs1 . Return the value.
27.5

Request body: readout Percent Effect, system Tyrosyl-tRNA synthetase, putative (Trypanosoma cruzi (strain CL Brener)) (UniProt Q4DSP6), query CCC(=O)Nc1ccc(C(C)NC(=O)COCCOC)cc1 (centres undefined) . Return the value.
15.6

Request body: readout Percent Effect, system Tyrosyl-tRNA synthetase, putative (Trypanosoma cruzi (strain CL Brener)) (UniProt Q4DSP6), query Cc1ccc(C(O)CNCc2c(C(C)C)nn(C)c2N(C)C)cc1 (centres undefined) . Return the value.
19.5

Request body: readout Percent Effect, system Tyrosyl-tRNA synthetase, putative (Trypanosoma cruzi (strain CL Brener)) (UniProt Q4DSP6), query Cc1ccc(OCC(=O)NCc2ccccc2F)nc1 . Return the value.
13.6

Request body: readout Percent Effect, system Tyrosyl-tRNA synthetase, putative (Trypanosoma cruzi (strain CL Brener)) (UniProt Q4DSP6), query CC(=O)c1ccc(OCC(=O)NC(C)CCc2ccco2)cc1 (centres undefined) . Return the value.
2.44

Request body: readout Percent Effect, system Tyrosyl-tRNA synthetase, putative (Trypanosoma cruzi (strain CL Brener)) (UniProt Q4DSP6), query NC(=O)C(CNC(=O)Cc1ccc(F)cc1)Cc1ccc(F)cc1 (centres undefined) . Return the value.
0

Request body: readout Percent Effect, system Tyrosyl-tRNA synthetase, putative (Trypanosoma cruzi (strain CL Brener)) (UniProt Q4DSP6), query Cc1noc(C)c1C(=O)NCC(O)c1ccc(F)cc1F (centres undefined) . Return the value.
-6.1

Request body: readout Percent Effect, system Tyrosyl-tRNA synthetase, putative (Trypanosoma cruzi (strain CL Brener)) (UniProt Q4DSP6), query CC(c1cccnc1)N(C)Cc1csc(-c2ccccn2)n1 (centres undefined) . Return the value.
15

Request body: readout Percent Effect, system Tyrosyl-tRNA synthetase, putative (Trypanosoma cruzi (strain CL Brener)) (UniProt Q4DSP6), query CC(C)c1nc(C2CCCN2CCc2ccncc2)no1 (centres undefined) . Return the value.
-4.88

Request body: readout Percent Effect, system Tyrosyl-tRNA synthetase, putative (Trypanosoma cruzi (strain CL Brener)) (UniProt Q4DSP6), query CC(C)n1cc(CN2CCCN(C(=O)c3cc(Cl)c[nH]3)CC2)cn1 . Return the value.
13.6

Request body: readout Percent Effect, system Tyrosyl-tRNA synthetase, putative (Trypanosoma cruzi (strain CL Brener)) (UniProt Q4DSP6), query C[C@@H]1CN(C(=O)NC2CC2)C[C@]12CCN(c1ccsc1)C2=O . Return the value.
11.5
